The values you see were collected from patent US20060166900A1.

Experiment: Stability indicating HPLC assay and related substances on storage (Example 3)
Assay type: physicochemical
Conditions: 3 months, 25° C./60% RH
recorded_metric: M6G Assay, As is basis (% w/w)
The reply should contain only the number, in % w/w.

Solved cases below.
compound	M6G Assay, As is basis (% w/w)
CN1CC[C@]23c4c5ccc(O)c4O[C@H]2[C@@H](O[C@@H]2O[C@H](C(=O)O)[C@@H](O)[C@H](O)[C@H]2O)C=C[C@H]3[C@H]1C5.Cl [Morphine-6-glucuronide hydrochloride]	75.48
CN1CCC23c4c5ccc(O)c4OC2C(OC2OC(C(=O)O)C(O)C(O)C2O)C=CC3C1C5.CN1CCC23c4c5ccc(O)c4OC2C(OC2OC(C(=O)O)C(O)C(O)C2O)C=CC3C1C5.O=S(=O)(O)O (stereo not shown) [Morphine-6-glucuronide sulphate]	69.08
Br.CN1CC[C@]23c4c5ccc(O)c4O[C@H]2[C@@H](O[C@@H]2O[C@H](C(=O)O)[C@@H](O)[C@H](O)[C@H]2O)C=C[C@H]3[C@H]1C5 [Morphine-6-glucuronide hydrobromide]	84.30

Q: What does the data say about its M6G Assay, As is basis? Entry: CN1CCC23c4c5ccc(O)c4OC2C(OC2OC(C(=O)O)C(O)C(O)C2O)C=CC3C1C5.CN1CCC23c4c5ccc(O)c4OC2C(OC2OC(C(=O)O)C(O)C(O)C2O)C=CC3C1C5.O=C(O)C=CC(=O)O (stereo not shown) [Morphine-6-glucuronide maleate]
A: 80.04
